- System: TTR
- ASSAY_PROCEDURE: EC50 and maximum editing in primary cyno hepatocytes treated with LNP formulated U-depleted Spy Cas9 mRNA and sgRNAs (Tables 20, 22)
- Format: cell-based, cynomolgus monkey
- Set-up: key: % of sequence reads with indels or substitutions over total reads
- PARTICULARS: Table 20, LNP with U-depleted Spy Cas9 mRNA and human specific sgRNAs, dose response
Strand notation (5' to 3'): a small letter for the sugar, then the base; units joined by * are phosphorothioate-linked, units joined directly phosphodiester-linked; [ ] holds rarer units or linkages, { } end groups; capitals alone tell only the bases. m = 2'-O-methyl; r = 2'-OH (RNA)
Recorded Max Editing by entry

# MOLECULE, Max Editing
rows = [
    ("G000480: TTR sgRNA modified sequence, Human, SEQ ID No. 87; guide sequence of CR003353 (nucleic acid) guide: mA*mA*mA*rGrGrCrUrGrCrUrGrArUrGrArCrArCrCrUrGrUrUrUrUrArGrAmGmCmUmAmGmAmAmAmUmAmGmCrArArGrUrUrArArArArUrArArGrGrCrUrArGrUrCrCrGrUrUrArUrCrAmAmCmUmUmGmAmAmAmAmAmGmUmGmGmCmAmCmCmGmAmGmUmCmGmGmUmGmCmU*mU*mU*mU", 20.32),
    ("G000490: TTR sgRNA modified sequence, Human, SEQ ID No. 97; guide sequence of CR003366 (nucleic acid) guide: mA*mA*mA*rUrArGrArCrArCrCrArArArUrCrUrUrArCrGrUrUrUrUrArGrAmGmCmUmAmGmAmAmAmUmAmGmCrArArGrUrUrArArArArUrArArGrGrCrUrArGrUrCrCrGrUrUrArUrCrAmAmCmUmUmGmAmAmAmAmAmGmUmGmGmCmAmCmCmGmAmGmUmCmGmGmUmGmCmU*mU*mU*mU", 90.76),
    ("G000567: TTR sgRNA modified sequence, Human, SEQ ID No. 109; guide sequence of CR003352 (nucleic acid) guide: mG*mA*mA*rArGrGrCrUrGrCrUrGrArUrGrArCrArCrCrGrUrUrUrUrArGrAmGmCmUmAmGmAmAmAmUmAmGmCrArArGrUrUrArArArArUrArArGrGrCrUrArGrUrCrCrGrUrUrArUrCrAmAmCmUmUmGmAmAmAmAmAmGmUmGmGmCmAmCmCmGmAmGmUmCmGmGmUmGmCmU*mU*mU*mU", 97.06),
    ("G000488: TTR sgRNA modified sequence, Human, SEQ ID No. 95; guide sequence of CR003346 (nucleic acid) guide: mA*mA*mA*rGrUrUrCrUrArGrArUrGrCrUrGrUrCrCrGrGrUrUrUrUrArGrAmGmCmUmAmGmAmAmAmUmAmGmCrArArGrUrUrArArArArUrArArGrGrCrUrArGrUrCrCrGrUrUrArUrCrAmAmCmUmUmGmAmAmAmAmAmGmUmGmGmCmAmCmCmGmAmGmUmCmGmGmUmGmCmU*mU*mU*mU", 21.63),
    ("G000570: TTR sgRNA modified sequence, Human, SEQ ID No. 111; guide sequence of CR003347 (nucleic acid) guide: mC*mA*mU*rUrGrArUrGrGrCrArGrGrArCrUrGrCrCrUrGrUrUrUrUrArGrAmGmCmUmAmGmAmAmAmUmAmGmCrArArGrUrUrArArArArUrArArGrGrCrUrArGrUrCrCrGrUrUrArUrCrAmAmCmUmUmGmAmAmAmAmAmGmUmGmGmCmAmCmCmGmAmGmUmCmGmGmUmGmCmU*mU*mU*mU", 96.73),
    ("G000481: TTR sgRNA modified sequence, Human, SEQ ID No. 88; guide sequence of CR003345 (nucleic acid) guide: mU*mC*mU*rArGrArArCrUrUrUrGrArCrCrArUrCrArGrGrUrUrUrUrArGrAmGmCmUmAmGmAmAmAmUmAmGmCrArArGrUrUrArArArArUrArArGrGrCrUrArGrUrCrCrGrUrUrArUrCrAmAmCmUmUmGmAmAmAmAmAmGmUmGmGmCmAmCmCmGmAmGmUmCmGmGmUmGmCmU*mU*mU*mU", 95.07),
]
